Assay System: T1, SARS-CoV-2 Receptor Binding Domain (RBD) protein (SARS-CoV-2, UniProt P0DTC2 319-541)
T1 construct: also called Sars-Cov-2 (COV2)
Procedure Text: SPR (Carterra LSA); scFv captured by anti-V5, RBD as analyte
Recorded measurements of Kd, one per entry

[
  {
    "Binder": "COVID19_P01_E12 (scFv, V domains shown) VH: QVQLVQSGAEVKKPGSSVKVSCKASGYTFTTYDINWVRQAPGQGLEWMGWINPNSGGTNYAQKFQGRVTITADESTSTAYMELSSLRSEDTAVYYCARDTYWGGMDVWGQGTLVTVSS VL: SSYVLTQPPSVSVAPGKTARITCGGNNIGSKSVHWYQQKPGQAPVLVIYDDSDRPSGIPERFSGSNSGNTATLTISRVEAGDEADYYCQVWDSSSFYVFGGGTKLTVLA",
    "Kd [nM]": 32.5
  },
  {
    "Binder": "COVID19_P13_H07 (scFv, V domains shown) VH: QVQLVQSGAEVKKPGSSVKVSCKASGYTFINYDINWVRQAPGQGLEWMGGITPIFGTAKYAQKFQGRVTITADESTSTAYMELSSLRSEDTAVYYCARDTVMGGMDVWGQGTLVTVSS VL: SSYVLTQPPSVSVAPGKTARITCGGNNIGSKSVHWYQQKPGQAPVLVIYYDSDRPSGIPERFSGSNSGNTATLTISRVEAGDEADYYCQVWDSSSDYVFGGGTKLTVLA",
    "Kd [nM]": 1.92
  }
]
